# Protocol Text: Maximum concentration in the serum of mice following a single oral dose of 10 mg/kg (data represent mean in 3 mice)
# Assay type: ADME, organism-based
# Set-up: dose 10 mg/kg, route oral
# Assay Setup: mouse
Property Label: Cmax (ng/mL)
# number only, unit ng/mL dropped from output

Compound | Readout Value
CC[C@H]1OC(=O)[C@H](C)[C@@H](O[C@H]2C[C@@](C)(OC)[C@@H](O)[C@H](C)O2)[C@H](C)[C@@H](O[C@@H]2O[C@H](C)C[C@H](N(C)C)[C@H]2O)[C@](C)(OC)C[C@@H](C)C(=O)[C@H](C)[C@@H](O)[C@]1(C)O | 1210

Param item = CC[C@H]1OC(=O)[C@H](C)[C@@H](OC(=O)Cc2cccnc2)[C@H](C)[C@@H](OC2O[C@H](C)C[C@H](N(C)C)[C@H]2O)[C@@]2(C)C[C@@H](C)[C@H](OC(=O)O2)[C@H](C)[C@H]2OC(=O)O[C@@]21C (some centres not stated) ; retrieve measured Cmax.
120

All values here come from ChEMBL document CHEMBL1145811.
